Hey, just so you know, these numbers are from the supplement of paper PMC12667976.

B1: library; numbered along this chain (parent)
chain: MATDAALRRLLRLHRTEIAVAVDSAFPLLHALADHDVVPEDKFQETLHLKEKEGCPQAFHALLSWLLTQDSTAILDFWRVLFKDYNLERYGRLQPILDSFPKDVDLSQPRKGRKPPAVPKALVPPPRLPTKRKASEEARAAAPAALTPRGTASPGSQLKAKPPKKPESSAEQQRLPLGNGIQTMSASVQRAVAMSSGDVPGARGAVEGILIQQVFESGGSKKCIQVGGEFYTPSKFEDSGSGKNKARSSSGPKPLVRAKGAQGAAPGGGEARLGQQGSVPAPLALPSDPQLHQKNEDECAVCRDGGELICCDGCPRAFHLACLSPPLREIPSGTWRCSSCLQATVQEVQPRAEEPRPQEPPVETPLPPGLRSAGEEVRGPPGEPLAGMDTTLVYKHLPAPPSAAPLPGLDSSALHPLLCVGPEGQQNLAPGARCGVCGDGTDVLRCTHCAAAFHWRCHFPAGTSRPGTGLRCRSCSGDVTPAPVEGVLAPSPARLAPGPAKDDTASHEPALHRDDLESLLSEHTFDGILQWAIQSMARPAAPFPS

# Variants of: B1
# ASSAY_OVERVIEW: AIRE transcriptional activation functional score (insulin promoter-GFP; nonsense median 0, synonymous median 1) (normalised score); higher = higher AIRE activity (more reporter activation)
# PROTOCOL_CONDITIONS: with insulin promoter-GFP reporter in HEK293
We'd kindly ask you to apply these AIRE transcriptional activation functional score classes: lower = under 0.5, middle = from 0.5 up to 1, upper = 1 and over

q: Please indicate the class for R456C based on its AIRE transcriptional activation functional score.
a: upper

q: Please indicate the class for F459W based on its AIRE transcriptional activation functional score.
a: lower
